Source listed as ChEMBL document CHEMBL1201862.

# System: CCRF-CEM
# Procedure text: NCI tumour cell line growth inhibition, 48 h
Calls of active or inactive are those of the source. Cut-off read from the data, not from the text of the source: active = GI50 up to about 1.1 µM and inactive = higher.
Readout: GI50

>>> readout_value("N=C(N)N/N=C/c1c(-c2ccc(N)cc2)nc2sccn12")
"26.8 µM (inactive)"

Input: Given Cc1ccc(/N=C/c2ccc3c(c2)OCO3)cc1C , state its recorded GI50.
Output: > 100 µM (inactive)

Input: Also Cc1nc2ccc(Cl)cc2c2c1CCS2 ?
Output: 46 µM (inactive)

Input: Note, next up: c1cncc(CSc2ncnc3[nH]cnc23)c1
Output: > 100 µM (inactive)

Input: Another compound: CCOC(=O)Cn1c(=O)[nH]c(=O)c2[nH]cnc21
Output: > 100 µM (inactive)

Input: What do we get for c1ccc(P(=C2c3ccccc3-c3ccccc32)(c2ccccc2)c2ccccc2)cc1 ?
Output: 2.51 µM (inactive)

Input: For COc1ccc2c3c1OC1C(OC)(OC)CC4(C=C2)CN(C)CCC314 (stereo not drawn) then?
Output: 30.4 µM (inactive)

Input: Also Clc1cc(OCc2nn3c(Cc4ccccc4)nnc3s2)c(Cl)cc1OCc1nn2c(Cc3ccccc3)nnc2s1 , if possible.
Output: 12.3 µM (inactive)
